System: PDC-DUC18828
Test: cell viability relative to DMSO control (compound alone) (fraction); PDC-DUC18828 is a patient-derived cholangiocarcinoma cell line; higher = less growth inhibition
Conditions: 1 µM; 72 h
Where a name gives a salt, the structure may show the parent alone. The full ranking holds about 2,000 compounds; the median of “cell viability relative to DMSO control (compound alone)” is about 0.98, and the lowest 2% start at about 0.23. The sample as a whole holds a higher share of the lowest values than the screen did.
value-type: cell viability

{"columns": ["molecule", "value-type", "test-result"],
 "data": [
  ["COc1cc(Nc2nc3ccccc3nc2NS(=O)(=O)c2ccc(NC(=O)c3ccc(C)c(OC)c3)cc2)cc(OC)c1", "cell viability", 0.925],
  ["Cc1cc(-c2ncc(CC(=O)Nc3ccc(-c4cnccn4)cn3)cc2C)ccn1", "cell viability", 1.01],
  ["Oc1ccc(Cc2nc3c(Cc4ccccc4)nc(-c4ccc(O)cc4)cn3c2O)cc1 [Coelenterazine]", "cell viability", 0.961],
  ["O=C(NCCCNc1nc(Nc2cccc(NC(=O)N3CCCC3)c2)ncc1I)c1cccs1", "cell viability", 0.701],
  ["CC(C)CCN1c2nc(Nc3cc(F)c(O)c(F)c3)ncc2N(C)C(=O)C1C (stereo unspecified)", "cell viability", 0.793],
  ["CC(C)C[C@H](NC(=O)[C@H](Cc1ccccc1)C[C@@H](O)[C@H](Cc1ccccc1)NC(=O)OC(C)(C)C)C(=O)N[C@@H](Cc1ccccc1)C(N)=O", "cell viability", 0.973],
  ["CC(C)c1cnn2c(NCc3ccccc3)cc(NCCCCCCN)nc12", "cell viability", 0.985],
  ["CNCc1ccc(C)c(NC(=O)c2ccc(Nc3nc(-c4ccccc4)c4ccccc4n3)cc2)c1", "cell viability", 0.891],
  ["CNC(=O)[C@H](Cc1ccccc1)NC(=O)[C@H](CC(C)C)[C@H](CSc1cccs1)C(=O)NO [Batimastat (BB-94)]", "cell viability", 0.998],
  ["Cn1c2ccccc2c2c3c(c4c5ccccc5n(CCC#N)c4c21)CNC3=O", "cell viability", 0.96],
  ["CC(=O)Nc1ccc(C(=O)Nc2ccccc2N)cc1 [CI994 (Tacedinaline)]", "cell viability", 0.99],
  ["Cc1cc(/C=C2/SC(=S)NC2=O)c(C)n1-c1cccnc1 [Optovin]", "cell viability", 0.96],
  ["CC1(C)CC(=O)c2c(C(F)(F)F)nn(-c3ccc(C(N)=O)c(N[C@H]4CC[C@H](OC(=O)CN)CC4)c3)c2C1", "cell viability", 0.336],
  ["Cc1c(C(=O)N2CCOc3ccc(-c4ccc(N)nc4)cc3C2)ccc(S(C)(=O)=O)c1F", "cell viability", 0.756],
  ["COC(=O)N1CCN(Cc2cccc(NC(=O)Nc3ccc(C)nc3)c2F)CC1", "cell viability", 1.01],
  ["Cc1cnc(NC(=O)Nc2cc(Br)c(C)cc2OC[C@@H]2CNCCO2)cn1", "cell viability", 0.989],
  ["NCc1c[nH]c(=S)n1[C@H]1CCc2c(F)cc(F)cc2C1 [Nepicastat (SYN-117) HCl]", "cell viability", 1.02],
  ["Clc1cccc(CN=C2Nc3ccccc3NC23CCNCC3)c1 [Liproxstatin-1]", "cell viability", 0.963],
  ["O=C(/C=C/c1ccc(CN(CCO)CCc2c[nH]c3ccccc23)cc1)NO [LAQ824 (Dacinostat)]", "cell viability", 0.141],
  ["N[C@@H]1CCCN(c2c(/C=C3\\SC(=O)NC3=O)cccc2-c2ccccc2)C1", "cell viability", 0.901],
  ["Oc1cccc(-c2nc(N3CCOCC3)c3oc4ncccc4c3n2)c1", "cell viability", 0.503],
  ["C=C1/C(=C\\C=C2/CCC[C@]3(C)[C@@H]([C@H](C)CCCC(C)(C)O)CC[C@@H]23)C[C@@H](O)C[C@@H]1O [Calcitriol]", "cell viability", 0.968],
  ["CC(C)C[C@H](NC(=O)[C@@H](NC(=O)c1cccc(-c2ccccc2)n1)[C@@H](C)O)B(O)O", "cell viability", 0.0155],
  ["COc1ccc(-c2cc3c(C)nc(N)nc3n([C@H]3CC[C@H](OCCO)CC3)c2=O)cn1", "cell viability", 0.222],
  ["Cc1ccccc1N=Nc1ccc(NC(=O)c2ccnn2C)c(C)c1", "cell viability", 0.99],
  ["Cc1ccc(-n2sc(=O)n(Cc3ccc(F)cc3)c2=O)cc1", "cell viability", 0.937],
  ["Oc1ccc([C@H]2COc3cc(O)ccc3C2)cc1 [Equol]", "cell viability", 0.934],
  ["O=C(Nc1cccc(C(F)(F)F)c1)Nc1cc(S(=O)(=O)NC2CC2)ccc1-c1ccsc1", "cell viability", 0.987],
  ["Cc1ccc(Sc2ccccc2N2CCNCC2)c(C)c1", "cell viability", 1.04],
  ["Cn1c(=O)c(F)c(Nc2ccc(I)cc2F)c2c(=O)n(C[C@@H](O)CO)cnc21", "cell viability", 0.663],
  ["O=C(O)CCCc1c[nH]c2ccccc12 [3-Indolebutyric acid (IBA)]", "cell viability", 0.998]
]}
